Overview of reported IC50 across a group of compounds:
test system: TF1 JAK2 V617F STAT5 reporter; assay: Cellular TF1 STAT5 assay (luciferase reporter), JAK2 V617F; format: cell-based; details: TF1 JAK2 V617F, read-out: Cell PD TF1 V617F STAT5 (IC50)

Answered examples (3):
[[record]]
compound = "CNC(=O)c1nnc(NC(=O)C2CC2)cc1Nc1cccc(-c2ccc(C(=O)N(C)Cc3cccn(C)c3=O)nc2OC)c1OC"
value_type = "IC50"
data_value = "500 to 5000 nM"

[[record]]
compound = "CNC(=O)c1nnc(NC(=O)C2CC2)cc1Nc1cccc(-c2cnn(C3CN(Cc4cc(F)ccc4F)C3)c2)c1OC"
value_type = "IC50"
data_value = "500 to 5000 nM"

[[record]]
compound = "CNC(=O)c1nnc(NC(=O)C2CC2)cc1Nc1cccc(-c2ccc(C(=O)N(C)Cc3cccnn3)nc2)c1OC"
value_type = "IC50"
data_value = "500 to 5000 nM"


Please report the measured IC50 for `CNC(=O)c1nnc(NC(=O)C2CC2)cc1Nc1cccc(-c2cnn(C3CN(Cc4cccc(C(F)F)n4)C3)c2)c1OC` tested on TF1 JAK2 V617F STAT5 reporter.
50 to 500 nM

Print TF1 JAK2 V617F STAT5 reporter IC50 for `CNC(=O)c1nnc(NC(=O)C2CC2)cc1Nc1cccc(-c2ccc(C(=O)N(C)Cc3cn(C)nc3C)nc2)c1OC` .
50 to 500 nM

Write IC50 of `CNC(=O)c1nnc(NC(=O)C2CC2)cc1Nc1cccc(-c2ccc(C(=O)N(C)Cc3ccn(C)n3)nn2)c1OC` ; system used: TF1 JAK2 V617F STAT5 reporter
500 to 5000 nM

Give IC50 for this entry on TF1 JAK2 V617F STAT5 reporter: `CNC(=O)c1nnc(NC(=O)C2CC2)cc1Nc1cccc(-c2cnn(C3CN(Cc4nnc(C)s4)C3)c2)c1OC`
500 to 5000 nM

---

Target: JAK2 JH2 WT (V536-D812) [W659A, W777A, F794H solubilizing mutations] (Homo sapiens, UniProt O60674, F794H/W659A/W777A)
Construct: **JAK2 JH2 WT (V536-D812) [W659A, W777A, F794H solubilizing mutations]; C-thrombin-avi-His6; thrombin cleavage site (C); His6 (C); purchased Biortus
Sequence (O60674 536-812 W659A/W777A/F794H): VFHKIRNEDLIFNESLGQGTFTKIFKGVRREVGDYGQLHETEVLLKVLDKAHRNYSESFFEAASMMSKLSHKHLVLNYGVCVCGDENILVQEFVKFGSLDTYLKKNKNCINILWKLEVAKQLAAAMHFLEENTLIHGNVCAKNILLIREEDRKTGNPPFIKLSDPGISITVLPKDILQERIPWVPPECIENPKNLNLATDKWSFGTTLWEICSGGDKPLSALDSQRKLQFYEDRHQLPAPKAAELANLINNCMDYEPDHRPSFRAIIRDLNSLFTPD
Test: Surface Plasmon Resonance (SPR) binding assay, JAK2 JH2 domain
Description: Selected compounds of the present disclosure were tested in a Surface Plasmon Resonance (SPR) Assay to measure their binding kinetics and affinity for proteins of interest. Prepare buffer: 50 mM HEPES pH 7.5, 150 mM NaCl, 0.05% (v/v) Tween, and 10% (v/v) glycerol were combined and pH was adjusted to 7.5, then filtered. 5 mM DTT, was added, and buffer without DMSO was reserved for compound resuspension. […]
pKd: −log10 of the molar value.
Form field: pKd (one value per entry).

Study these solved cases before continuing.
[[record]]
molecule = "CC#Cc1cccc(CN2CC(n3cc(-c4cccc(Nc5cc(NC(=O)C6CC6)nnc5C(=O)NC)c4OC)cn3)C2)n1"
value_type = "pKd"
data_value = "8.00 to 11.00"

[[record]]
molecule = "CNC(=O)c1nnc(NC(=O)C2CC2)cc1Nc1nccc(-c2ccc(C(=O)N(C)Cc3ncc(COC)s3)nc2)c1OC"
value_type = "pKd"
data_value = "8.00 to 11.00"

[[record]]
molecule = "CNC(=O)c1nnc(NC(=O)OC2CC2)cc1Nc1cccc(-c2cnn(C3CN(Cc4cccc(C#N)n4)C3)c2)c1OC"
value_type = "pKd"
data_value = "8.00 to 11.00"

[[record]]
molecule = "CNC(=O)c1nnc(NC(=O)C2CC2)cc1Nc1cccc(-c2ccc(C(=O)N(C)Cc3cn(C4CC4)nc3C)nc2)c1OC"
value_type = "pKd"
data_value = "8.00 to 11.00"

[[record]]
molecule = "CNC(=O)c1nnc(NC(=O)C2CC2)cc1Nc1cccc(C(=O)N[C@@H](C)C2CN(Cc3ccccn3)C2)c1OC (single isomer, unassigned)"
value_type = "pKd"
data_value = "6.30 to 7.30"

[[record]]
molecule = "CNC(=O)c1nnc(NC(=O)C2CC2)cc1Nc1cccc(-c2cnn(C3CN(Cc4cccc(COC)n4)C3)c2)c1OC"
value_type = "pKd"
data_value = "8.00 to 11.00"

[[record]]
molecule = "CNC(=O)c1nnc(NC(=O)C2CC2)cc1Nc1cccc(-c2cnn(C3CN(Cc4cccc(C(=O)N5CCC(F)(F)C5)n4)C3)c2)c1OC"
value_type = "pKd"
data_value = "8.00 to 11.00"

[[record]]
molecule = "CNC(=O)c1nnc(NC(=O)C2CC2)cc1Nc1cccc(-c2cnn(C3CN(Cc4cc(Cl)ccn4)C3)c2)c1OC"
value_type = "pKd"
data_value = "8.00 to 11.00"


Supply measured pKd of `CNC(=O)c1nnc(NC(=O)C2CC2)cc1Nc1cccc(-c2ccc(C3CN(Cc4cn(C)nc4C#N)C3)nc2)c1OC` in your reply.
6.30 to 7.30

---

As shown below, each of these compounds has a reported Kd value.
Biological target: JAK2 JH2 WT (V536-D812) [W659A, W777A, F794H solubilizing mutations] (Homo sapiens, UniProt O60674, F794H/W659A/W777A)
Construct: **JAK2 JH2 WT (V536-D812) [W659A, W777A, F794H solubilizing mutations]; C-thrombin-avi-His6; thrombin cleavage site (C); His6 (C); purchased Biortus
Assay: Surface Plasmon Resonance (SPR) binding assay, JAK2 JH2 domain
Settings: SPR, JAK2 JH2 domain
Procedure: Selected compounds of the present disclosure were tested in a Surface Plasmon Resonance (SPR) Assay to measure their binding kinetics and affinity for proteins of interest. Prepare buffer: 50 mM HEPES pH 7.5, 150 mM NaCl, 0.05% (v/v) Tween, and 10% (v/v) glycerol were combined and pH was adjusted to 7.5, then filtered. 5 mM DTT, was added, and buffer without DMSO was reserved for compound resuspension. […]

[[record]]
compound = "CNC(=O)c1nnc(NC(=O)C2CC2)cc1Nc1cccc(-c2ccc(C(=O)N(C)C(C)c3cnn(C)c3)nc2)c1OC (stereo not shown)"
value_type = "Kd"
data_value = "0.01 to 10 nM"

[[record]]
compound = "CNC(=O)c1nnc(NC(=O)C2CC2)cc1Nc1cccc(-c2cnn(C3CN(Cc4cccnc4Cl)C3)c2)c1OC"
value_type = "Kd"
data_value = "0.01 to 10 nM"

[[record]]
compound = "CNC(=O)c1nnc(NC(=O)C2CC2)cc1Nc1cccc(-c2ccc(C(=O)N(C)Cc3cn(C)nc3C(F)(F)F)nc2)c1OC"
value_type = "Kd"
data_value = "0.01 to 10 nM"

[[record]]
compound = "CNC(=O)c1nnc(NC(=O)C2CC2)cc1Nc1cccc(-c2cnc(C(=O)N(C)Cc3ccccn3)c(F)c2)c1OC"
value_type = "Kd"
data_value = "0.01 to 10 nM"

[[record]]
compound = "CNC(=O)c1nnc(NC(=O)C2CC2)cc1Nc1cccc(-c2ccc(C(=O)N(C)Cc3cnc4ccc(Cl)cn34)nc2)c1OC"
value_type = "Kd"
data_value = "0.01 to 10 nM"

[[record]]
compound = "CNC(=O)c1nnc(NC(=O)C2CC2)cc1Nc1cccc(-c2ccc(C(=O)N(C)Cc3cc(C(F)F)ccn3)nc2)c1OC"
value_type = "Kd"
data_value = "0.01 to 10 nM"


State its Kd: `CNC(=O)c1nnc(NC(=O)C2CC2)cc1Nc1cccc(-c2ccc(C(=O)N(C)Cc3cn(C)cn3)nc2)c1OC`
0.01 to 10 nM

---

Recorded IC50 by entry
system: TF1 JAK2 V617F STAT5 reporter; experiment: Cellular TF1 STAT5 assay (luciferase reporter), JAK2 V617F; format: cell-based; settings: TF1 JAK2 V617F, read-out: Cell PD TF1 V617F STAT5 (IC50)

[[record]]
compound_structure = "[2H]C([2H])([2H])NC(=O)c1nnc(NC(=O)C2CC2)cc1Nc1cccc(-c2ccc(C(=O)N(Cc3cc(C#N)ccn3)C([2H])([2H])[2H])nc2)c1OC"
value_type = "IC50"
data_value = "50 to 500 nM"

[[record]]
compound_structure = "CNC(=O)c1nnc(NC(=O)C2CC2)cc1Nc1cccc(-c2cnn(C3CN(Cc4cccnc4Cl)C3)c2)c1OC"
value_type = "IC50"
data_value = "50 to 500 nM"


# return recorded IC50 for input `CNC(=O)c1nnc(NC(=O)C2CC2)cc1Nc1cccc(-c2cnn(C3CN(Cc4cc(OC)ccn4)C3)c2)c1OC`
500 to 5000 nM

Check the records and state IC50 for `CNC(=O)c1nnc(NC(=O)C2CC2)cc1Nc1cccc(-c2ccc(C(=O)N(C)Cc3ccccc3C(C)C)nc2)c1OC`
500 to 5000 nM

State its IC50 for this molecule: `CNC(=O)c1nnc(NC(=O)C2CC2)cc1Nc1cccc(-c2cnc(C(=O)N(C)Cc3cccn(C)c3=O)cc2C)c1OC`
500 to 5000 nM

Give IC50 for `CNC(=O)c1nnc(NC(=O)C2CC2)cc1Nc1cccc(-c2cc(C3CN(Cc4ccccn4)C3)nn2C)c1OC`
5000 to 100000 nM

Report measured IC50; entry is `CNC(=O)c1nnc(NC(=O)C2CC2)cc1Nc1cccc(-c2cnn(C3CN(Cc4cc(C#N)ccn4)C3)c2)c1OC`
500 to 5000 nM

Return IC50 for the following molecule: `CNC(=O)c1nnc(NC(=O)C2CC2)cc1Nc1cccc(-c2cnn(C3CN(Cc4ccccn4)C3)c2)c1OC`
50 to 500 nM

Provide only the value of recorded IC50 for `CNC(=O)c1nnc(NC(=O)C2CC2)cc1Nc1cccc(-c2cnc(C(=O)N(C)Cc3cc(C#N)ccn3)c(F)c2)c1OC`
50 to 500 nM

Specify IC50 for `CNC(=O)c1nnc(NC(=O)C2CC2)cc1Nc1cccc(-c2cnc(C(=O)N(C)Cc3ccn(C)n3)c(C#N)c2)c1OC` and stop.
500 to 5000 nM

Query IC50 for `CNC(=O)c1nnc(NC(=O)C2CC2)cc1Nc1cccc(-c2ccc(C(=O)N(C)Cc3c(C)ccnc3C)nc2)c1OC`
50 to 500 nM

Let me know recorded IC50 for `CNC(=O)c1nnc(NC(=O)C2CC2)cc1Nc1cccc(-c2cc(C3CN(Cc4cnn(C)c4)C3)n(C)n2)c1OC` , thanks.
5000 to 100000 nM

Find the measured IC50 of `CNC(=O)c1nnc(NC(=O)C2CC2)cc1Nc1cccc(-c2ccc(C(=O)N(C)Cc3ccn(C)n3)c(C#N)c2)c1OC` and report it.
500 to 5000 nM
